Assay: cell-surface TF antigen, radiolabelled mAb binding, CHO
Conditions: glycan lost; control: wild-type TF-GFP

{"Protein": "tissue factor (TF): TFN11A/N124A/N137A (protein) parent chain: METPAWPRVPRPETAVARTLLLGWVFAQVAGASGTTNTVAAYNLTWKSTNFKTILEWEPKPVNQVYTVQISTKSGDWKSKCFYTTDTECDLTDEIVKDVKQTYLARVFSYPAGNVESTGSAGEPLYENSPEFTPYLETNLGQPTIQSFEQVGTKVNVTVEDERTLVRRNNTFLSLRDVFGKDLIYTLYYWKSSSSGKKTAKTNTNEFLIDVDKGENYCFSVQAVIPSRTVNRKSTDSPVECMGQEKGEFREIFYIIGAVVFVVIILVIILAISLHKCRKAGVGQSWKENSPLNVS", "localisation_or_trafficking": "no change"}
{"Protein": "tissue factor (TF): TFN11A (protein) parent chain: METPAWPRVPRPETAVARTLLLGWVFAQVAGASGTTNTVAAYNLTWKSTNFKTILEWEPKPVNQVYTVQISTKSGDWKSKCFYTTDTECDLTDEIVKDVKQTYLARVFSYPAGNVESTGSAGEPLYENSPEFTPYLETNLGQPTIQSFEQVGTKVNVTVEDERTLVRRNNTFLSLRDVFGKDLIYTLYYWKSSSSGKKTAKTNTNEFLIDVDKGENYCFSVQAVIPSRTVNRKSTDSPVECMGQEKGEFREIFYIIGAVVFVVIILVIILAISLHKCRKAGVGQSWKENSPLNVS", "localisation_or_trafficking": "no change"}
{"Protein": "tissue factor (TF): TFN11A/N137A (protein) parent chain: METPAWPRVPRPETAVARTLLLGWVFAQVAGASGTTNTVAAYNLTWKSTNFKTILEWEPKPVNQVYTVQISTKSGDWKSKCFYTTDTECDLTDEIVKDVKQTYLARVFSYPAGNVESTGSAGEPLYENSPEFTPYLETNLGQPTIQSFEQVGTKVNVTVEDERTLVRRNNTFLSLRDVFGKDLIYTLYYWKSSSSGKKTAKTNTNEFLIDVDKGENYCFSVQAVIPSRTVNRKSTDSPVECMGQEKGEFREIFYIIGAVVFVVIILVIILAISLHKCRKAGVGQSWKENSPLNVS", "localisation_or_trafficking": "no change"}
